Reported values of pEC50 for individual entries
# systemName: T1, receptor-binding domain (RBD) of the wild-type SARS-CoV-2 spike protein (SARS-CoV-2, UniProt P0DTC2 333-527)
# T1 construct: also called SARS-CoV-2 RBD
# experimentSummary: ELISA
# measurementSetup: both partners purified
pEC50: −log10 of the molar value.

| binder | pEC50 |
| --- | --- |
| mRBD10 (antibody, V domains shown) VH: QVQLKQSGAELVRPGASVKLSCKASGYTFTDYYINWVKQRPGQGLEWIARIYPGSGNTYYNEKFKGKATLTAEKSSSTAYMQLSSLTSEDSAVYFCARDYGSSYVDYFDYWGQGTTLTVSS VL: DIQMTQTTSSLSASLGDRVTISCRASQDISNYLNWYQQKPDGTVKLLIYYTSRLHSGVPSRFSGSGSGTDYSLTISNLEQEDIATYFCQQGNTLPLTFGAGTKLELK | 9.72 |
| mRBD12 (antibody, V domains shown) VH: QVQLQQSGAELARPGASVKLSCKASGYTFTSYGISWVKQRTGQGLEWIGEIYPRSGNTYYNEKFKGKATLTADKSSSTAYMEVRSLTSEDSAVYFCAREGGYGYVMDYWGQGTSVTVSS VL: DIQMTQTTSSLSASLGDRVTISCRASQDISNYLNWYQQKPDGTVKLLIYYTSRLHSGVPSRFSGSGSGTDYSFTISNLEQEDIATYFCQQGNTLPWTFGGGTKLEIK | 9.96 |
| mRBD18 (antibody, V domains shown) VH: QIQLVQSGPELKKPGETVKISCKASGYTFTDYPMHWVQQAPGKGFKWMGMIYTDTGEPTYAEEFKGRFAFSLETSASTAYLQINNLKNEDTATYFCVRWAGYFDYWGQGTTLTVSS VL: DIVLTQSPASLAVSLGQRATISCRASESVDSYGNSFMDWYQQKPGQPPKLLIYRASNLESGIPARFSGSGSRTDFTLIINPVEADDVATYYCQQSNEHPLTFGAGTKLELK | 9.65 |
| mRBD20 (antibody, V domains shown) VH: QIQLVQSGPELKKPGETVKISCKASGYTLTEYPMHWVKQAPGKGFKWMGMIYTDTGEPTYAEEFKGRFAFSLETSASTAYLQINNLKNEDTATYFCVRAGPSYAMDYWGQGTSVTVSS VL: NIVLTQSPASLAMSLGQRATISCRASESVDSYGNSFMHWYQLKPGQPPKLLIYLASNLESGVPARFSGSGSRTDFTLTIDPVEADDAATYYCQQNNEDPYTFGGGTKLEIK | 9.82 |
| mRBD5 (antibody, V domains shown) VH: QVQLQQPGAELVKPGASVKVSCKASGYTFTSYWMHWVKQRPGQGLEWIGRIHPSDSDTNYNQKFKGKATLTVDKSSSTAYMQLSSLTSEDSAVYYCAIDWDGDYWGQGTTLTVSS VL: DIVMSQSPSSLAVSAGEKVTMSCKSSQSLLNSRTRKNYLAWYQQKPGQSPKLLIYWASTRESGVPDRFTGSGSGTDFTLTISSVQAEDLAVYYCKQSYNLWTFGGGTKLEIK | 9.49 |
